Test system: UO-31 renal
Experiment: NCI tumour cell line growth inhibition, 48 h; in the data active = GI50 below about 0.43 µM; inactive = the rest
Where a SMILES comes first, the peptide text is derived from it.
Outcome codes: active, inactive

COMPOUND: O=Cc1cn(Cc2ccccc2)c2ccccc12
LABEL CLASS: inactive
--
COMPOUND: CCOC(=O)c1cc(C(=O)c2cc(OC)c(OC)c(OC)c2)n2nc(C)ccc12
LABEL CLASS: inactive
--
COMPOUND: CC(=O)/C(=C\c1c(-c2ccccc2)[nH]c2ccccc12)S(C)(=O)=O
LABEL CLASS: inactive
--
COMPOUND: CCNCCNc1cc(-c2ccc(Cl)c(Cl)c2)c(C#N)c2nc3ccccc3n12
LABEL CLASS: inactive
--
COMPOUND: CC(C)NCCCNc1c2ccccc2nc2cccc([N+](=O)[O-])c12
LABEL CLASS: active
--
COMPOUND: COC(=O)c1ccc(C2SC(C)C(=O)N2NC(=O)C(O)c2ccccc2)cc1 (stereo not given)
LABEL CLASS: inactive
--
COMPOUND: COc1ccc(C2NC(=O)c3cc4c(cc3N2)OCO4)cc1 (stereo not given)
LABEL CLASS: inactive
--
COMPOUND: O=C1c2ccccc2S(=O)(=O)N1CSC(=S)N1CCOCC1
LABEL CLASS: inactive
--
COMPOUND: COc1ccc(C(O)c2cc3c(N)c(C(=O)Nc4ccccc4)sc3nc2C)cc1 (stereo not given)
LABEL CLASS: active
--
COMPOUND: CC[O-].CC[O-].CN(C)c1ccc([O-])cc1.CN(C)c1ccc([O-])cc1.[Ti+4]
LABEL CLASS: inactive
--
COMPOUND: C#CC(F)(F)[C@]1(O)CC[C@H]2[C@@H]3CCC4=CC(=O)CCC4=C3[C@@H](c3ccc(C4CC4)cc3)C[C@@]21C
LABEL CLASS: active
--
COMPOUND: CC[N-]c1nnnn1CC.[Au+].c1ccc([PH+](c2ccccc2)c2ccccc2)cc1
LABEL CLASS: inactive
--
COMPOUND: O=C(Nc1ccccc1C(=O)N/N=C(\c1ccccc1)c1ccccn1)c1ccccc1
LABEL CLASS: inactive
--
COMPOUND: CC(C)(C(=O)NCC(F)(F)C(F)(F)F)C(=O)N[C@@H]1C(=O)Nc2ccccc2-c2ccccc21
LABEL CLASS: inactive
--
COMPOUND: COc1ccc(CCc2nc3cc(-c4c(C)noc4C)ccc3n2CCN2CCOCC2)cc1
LABEL CLASS: inactive
--
COMPOUND: CCNC(=O)N1CCc2c(Cl)c3c(c(OC)c2[C@@H]1[C@H]1OCc2c1ccc(OC)c2OC)OCCO3
LABEL CLASS: inactive
--
COMPOUND: O=S(=O)(Nc1ccc2ccccc2c1)N1CCCCC1
LABEL CLASS: inactive
--
COMPOUND: CCCCCCCC/C(=C\C1=C(C)C(=O)C(OC)=C(OC)C1=O)C(=O)O
LABEL CLASS: inactive
--
COMPOUND: C=C(C)[C@@H]1CC[C@]2(C(N)=O)CC[C@]3(C)[C@H](CC[C@@H]4[C@@]5(C)C/C(=C/c6cccnc6)C(=O)C(C)(C)[C@@H]5CC[C@]43C)[C@@H]12
LABEL CLASS: inactive
--
COMPOUND: CCC(C)C1NC(=O)C(CCCCN)NC(=O)C(CCCCN)NC(=O)C(CC(C)C)NC(=O)C(CCCCN)NC(=O)C(C(C)CC)NC(=O)C(C(C)C)NC(=O)C(C(C)CC)NC(=O)C(CCCCN)NC(=O)C(CCCCN)NC(=O)C(C)NC(=O)C(CCCCN)NC(=O)C(CC(C)C)NC1=O (stereo not given) (cyclo(AKKIVIKLKKILK); configuration not given here)
LABEL CLASS: inactive

FYI, the data here is from PubChem BioAssay (NCI).
